B1: glmS ribozyme (parent)
chain: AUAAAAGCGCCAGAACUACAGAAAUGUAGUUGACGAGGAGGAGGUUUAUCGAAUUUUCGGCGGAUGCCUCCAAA

- Variants of: B1
- method_notes: self-cleavage kobs at 160 uM GlcN6P; higher = faster cleavage; RNA array
- run_conditions: with glucosamine-6-phosphate
Fewer inactive variants are shown than the library holds.
A collection of variants and their measured self-cleavage kobs at 160 uM GlcN6P

Example entries begin here.
ordered_residues: AUAAAUGCGCCAGGACUACAGAAAUGUAGUUGACGAGGAGGAGGUUUAUCGAAUUUUCGGCGGAUGCCUCCAAA [A6U A14G]
self-cleavage kobs at 160 uM GlcN6P: 4.93e-05 s⁻¹

ordered_residues: AUAAAAGCGCCAGAAAUACAGAAAUGUAGUUGGCGAGGAGGAGGUUUAUCGAAUUUUCGGCGGGUGCCUCGAAA [C16A A33G A64G C71G]
self-cleavage kobs at 160 uM GlcN6P: 8.57e-05 s⁻¹

ordered_residues: AUAAAAGCGCCAGAACUACAGAAAUGUAGUUGACGUGGAGGAGGUUUAUCGAAUUUUCGGCGUAUGCCUCCAAA [A36U G63U]
self-cleavage kobs at 160 uM GlcN6P: < 1e-05 s⁻¹

ordered_residues: AUAAAAGCUCCAGAACUACAGAAAUGUAGUUGACGAGGAGGAGGUUUAUCGGAUUUUCGGCGGAUGCCUCCAAA [G9U A52G]
self-cleavage kobs at 160 uM GlcN6P: < 1e-05 s⁻¹

ordered_residues: AUAAAAGCGCCAGAACUACAGAAAUGUAGUUGACGAGGAGGCGGUUUAUCUACUUUUCGGCGGAUGCCUCGAAA [A42C G51U A53C C71G]
self-cleavage kobs at 160 uM GlcN6P: < 1e-05 s⁻¹

ordered_residues: AUAAAAGCGCCAAAACUACAGAAAUGUAGUUGCCGAGGAGGAGGUUUAUCGAAUAUUCGGCGGAUGCCUCCAAA [G13A A33C U55A]
self-cleavage kobs at 160 uM GlcN6P: < 1e-05 s⁻¹

ordered_residues: AUAAAAGCGCCAGAACUACAGAAAUGUAUUUGACGAGGAGGAGGUUUAUCGAAUUUUCGGCGGAUGUCUCCAAA [G29U C67U]
self-cleavage kobs at 160 uM GlcN6P: 0.000126 s⁻¹

ordered_residues: AUAAAAGCGCCAGAACUACAGAAAUGUAGUUGACGAGGUGGAGGUUUAUCGAAUGUUCGGCGGAUGCCUCCAAA [A39U U55G]
self-cleavage kobs at 160 uM GlcN6P: 0.00122 s⁻¹

ordered_residues: AUAAAAGCGCCAGACCUACAGAAAUGUAGUUGACGAGGAGGAGGUUUAUCGAAAUUUCGGCGGAUGCCUCCAAA [A15C U54A]
self-cleavage kobs at 160 uM GlcN6P: 0.000559 s⁻¹

ordered_residues: AUAAAAGCGCCAGAACUACAGAAAUGUAGUUGACGAGGAGGAGGCUUAUCGAAUUGUCGGCGGAUGCCUCCAAA [U45C U56G]
self-cleavage kobs at 160 uM GlcN6P: 5.85e-05 s⁻¹

Can you share its self-cleavage kobs at 160 uM GlcN6P? I mean this variant: AUAAAAGCGCCAGAACUACAGAAAUGUAGUUGACGAGGAGGUGGUUUGUCGAAUUUUCGGCGGAUGCCUCCAAA [A42U A48G]
< 1e-05 s⁻¹

Would you mind doing AUAAAAGCUCCAGAACUACAGAAAUGUAGUUGACGAGGACGAGGUUUAUCGAAUUUUCGGCGGAUGCCUCCAAA [G9U G40C] as well?
< 1e-05 s⁻¹

Would you mind doing AUAAAAGCGCCAGUACUACAGAAAUGUAGUGGACGAGGAGGAGGUUUAUCGAAUUUUCGGCGGAUGACUCCAAA [A14U U31G C67A] as well?
7.69e-05 s⁻¹

Would you mind doing AUAAAAGCACCAGAACUACAGAAAUGUAGUUGACGAGGACGAGGUUUAUCGAAUUUUCGGCGGAUGCCUCCAAA [G9A G40C] as well?
< 1e-05 s⁻¹

Would you mind doing AUAAAAGGGCAAGAACUACAGAAAUGUAGUUGACGAGGAGGAGGUUUAUCGAAUUUUCGGCGGAUGCCUCCAAA [C8G C11A] as well?
< 1e-05 s⁻¹

Would you mind doing AUAAAAGCGCCAGAACUACAGAAAUGUAGUUGACGAGGUCGAGGUUUAUCGAAUUUUCGGCGGAUGCCUCCAAA [A39U G40C] as well?
0.000253 s⁻¹

Would you mind doing AUAAAAGCGGCAGAACUACAGAAAUGUAGUUGACGAGGAGGAGGUUUAUCGAAUUUUCGGUGGAUGCCUCCAAA [C10G C61U] as well?
< 1e-05 s⁻¹

Would you mind doing AUAAAAGCGCCAGAACUACAGAAAUGUAGUAGGCGAGGAGGAGGUUUGUCGAAUUUUCGGCGGAUGCCUCCAAA [U31A A33G A48G] as well?
< 1e-05 s⁻¹

Would you mind doing AUAAACUCGCCAGAACUACAGAAAUGUAGUUGACGAGGAGGAGGUUUAUCGAAUUUUCGGCGGAUGCCUCCAAA [A6C G7U] as well?
< 1e-05 s⁻¹

Would you mind doing AUAAAAGCGCCAGAACUACAGAAAUGUAGUUGACGAGGAGAAGGUUUAUCGAAUUUUCGGCGGCUGCCUCCAAA [G41A A64C] as well?
< 1e-05 s⁻¹

Would you mind doing AUAAAAGCGCCAGAACUACAGAAAUGUAGUUGACGAGGAGGAGGGUUAUCCAAUUUUCGGCGGCUGCCUCCAAA [U45G G51C A64C] as well?
< 1e-05 s⁻¹

Would you mind doing AUAAAAGCGCCUGAACUACAGAAAUGUAGUUGACGAGGAGGAGUUUUAUCGAAUUUUCGGCGGAUGCCUCCAAA [A12U G44U] as well?
7.54e-05 s⁻¹

Would you mind doing AUAAAAGCGCCAGUACUACAGAAAUGUAGCUGACGAGGAGGAAGUUUAUCGAAUUUUCGGCGGAUGCCUCCAAA [A14U U30C G43A] as well?
< 1e-05 s⁻¹

Would you mind doing AUAAAAGCGCCAGAGCUACAGAAAUGUAGUUGACGAGGAGGAGUUUUAUCCGAUUGUCGGCGGAUGCCUCCAAA [A15G G44U G51C A52G U56G] as well?
< 1e-05 s⁻¹

Would you mind doing AUAAAAGCGCCAGAAGUACAGAAAUGUAGUUGACGUGGAGGAGGUUUAUGGAAUUUUCGGCGGAUGCGUCCAAA [C16G A36U C50G C68G] as well?
0.000256 s⁻¹

Would you mind doing AUAAAAGCGCCAGAACUACAGAAAUGUAGUUGACGAGGAGGAGGUUUAUCGAGUUUUCGUCGGAUGCCUCCAAA [A53G G60U] as well?
< 1e-05 s⁻¹

Would you mind doing AUAAAAGCGCUAGAACUACAGAAAUGUAGUUGACGAGGGGGAUGUUUAUCGAAUUUUGGGCGGAUGCCUACAAA [C11U A39G G43U C58G C70A] as well?
< 1e-05 s⁻¹

Would you mind doing AUAAAAGCGCCAGAACUACAGAAAUGUAGUCGACGAGGAGGAGGUUUAUCGAAUUUUCGGCGGUAGCCUCCAAA [U31C A64U U65A] as well?
< 1e-05 s⁻¹

Would you mind doing UAAAAAGCGCCAGAACUACAGAAAUGUAGUUGACGAGGAGGAGGUUUAUCGAAUUUUCGGCGAAUGCCUCCAAA [A1U U2A G63A] as well?
< 1e-05 s⁻¹
